Kindly supply the reported pIC50 values for the records listed here.
# System: Aβ production
# procedure-summary: Cellular Aβ IC50 determination (Aβ40 sandwich ELISA)
# Type: cell-based
# reported-conditions: Cricetulus griseus; Aβ40, Chinese hamster ovary cells over-expressing human APP695 with London and Swedish mutations, 24 h incubation
pIC50: −log10 of the molar value.

Report pIC50, nothing else, for this compound: CC[C@@H](Cn1nc(C)cc1C)C(=O)N[C@@H](CNC(=O)OC(C)(C)C)C(=O)N[C@@H](CC(C)C)[C@@H](O)C[C@@H](C)C(=O)N[C@H](C(=O)NCC(F)(F)F)C(C)C
4.00 to 5.22

Give the reported pIC50 for this compound. CC[C@@H](Cc1nc(C)cs1)C(=O)N[C@@H](CN(C)OC)C(=O)N[C@@H](CC(C)C)[C@@H](O)C[C@@H](C)C(=O)N[C@H](C(=O)NCC(C)C)C(C)C
< 4.00

State its pIC50: Cc1nc(C[C@H](C)C(=O)N[C@@H](CNC(=O)OC(C)(C)C)C(=O)N[C@@H](CC(C)C)[C@@H](O)C[C@@H](C)C(=O)N[C@H](C(=O)NCC(C)C)C(C)C)c(C)o1
> 5.22

Look up and state reported pIC50 for Cc1cc(C)n(C[C@H](C)C(=O)N[C@@H](CNC(=O)O[C@H]2CCOC2)C(=O)N[C@@H](CC(C)C)[C@@H](O)C[C@@H](C)C(=O)N[C@H](C(=O)NCC(C)C)C(C)C)n1
4.00 to 5.22

// fetch pIC50 given entry CC[C@@H](Cn1nc(C)cc1C)C(=O)N[C@@H](CNC(=O)OC(C)(C)C)C(=O)N[C@@H](CC(C)C)[C@@H](O)C[C@@H](C)C(=O)N[C@H](C(=O)NCc1ccccn1)C(C)C
4.00 to 5.22
